EXPERIMENTAL_PARAMETERS: in toluene, 328.2 K
QUANTITY_KIND: solubility (mole fraction)
Form: value (number only, do not type unit).

(Q) Fill in: solubility (mole fraction) of `O=C(O)[C@@H](O)CCc1ccccc1` is ___
(A) 0.0127

* * *

EXPERIMENTAL_PARAMETERS: in water, 318.2 K
QUANTITY_KIND: solubility (mole fraction)
Form: value (number only, do not type unit).

(Q) Fill in: solubility (mole fraction) of `O=C(O)[C@@H](O)CCc1ccccc1` is ___
(A) 0.00406

* * *

EXPERIMENTAL_PARAMETERS: in water, 303.2 K
QUANTITY_KIND: solubility (mole fraction)
Form: value (number only, do not type unit).

(Q) Fill in: solubility (mole fraction) of `O=C(O)[C@@H](O)CCc1ccccc1` is ___
(A) 0.00172

* * *

EXPERIMENTAL_PARAMETERS: in water, 328.2 K
QUANTITY_KIND: solubility (mole fraction)

(Q) Fill in: solubility (mole fraction) of `O=C(O)[C@@H](O)CCc1ccccc1` is ___
(A) 0.0142

* * *

EXPERIMENTAL_PARAMETERS: in toluene, 333.2 K
QUANTITY_KIND: solubility (mole fraction)
Form: value (number only, do not type unit).

(Q) Fill in: solubility (mole fraction) of `O=C(O)[C@@H](O)CCc1ccccc1` is ___
(A) 0.0173

* * *

EXPERIMENTAL_PARAMETERS: in toluene, 298.2 K
QUANTITY_KIND: solubility (mole fraction)
Form: value (number only, do not type unit).

(Q) Fill in: solubility (mole fraction) of `O=C(O)[C@@H](O)CCc1ccccc1` is ___
(A) 0.00235

* * *

EXPERIMENTAL_PARAMETERS: in ethyl acetate, 298.2 K
QUANTITY_KIND: solubility (mole fraction)
Form: value (number only, do not type unit).

(Q) Fill in: solubility (mole fraction) of `O=C(O)[C@@H](O)CCc1ccccc1` is ___
(A) 0.15

* * *

EXPERIMENTAL_PARAMETERS: in water, 283.2 K
QUANTITY_KIND: solubility (mole fraction)
Form: value (number only, do not type unit).

(Q) Fill in: solubility (mole fraction) of `O=C(O)[C@@H](O)CCc1ccccc1` is ___
(A) 0.00071

* * *

EXPERIMENTAL_PARAMETERS: in water, 308.2 K
QUANTITY_KIND: solubility (mole fraction)
Form: value (number only, do not type unit).

(Q) Fill in: solubility (mole fraction) of `O=C(O)[C@@H](O)CCc1ccccc1` is ___
(A) 0.00229

* * *

EXPERIMENTAL_PARAMETERS: in toluene, 308.2 K
QUANTITY_KIND: solubility (mole fraction)
Form: value (number only, do not type unit).

(Q) Fill in: solubility (mole fraction) of `O=C(O)[C@@H](O)CCc1ccccc1` is ___
(A) 0.00407

Where do these numbers come from? They come from BigSolDB 2.1.
